Target: furin, P09958;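 note: purified furin at 1:10 enzyme:substrate in 50 mM HEPES pH 7.5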
Sequence (P09958 whole entry): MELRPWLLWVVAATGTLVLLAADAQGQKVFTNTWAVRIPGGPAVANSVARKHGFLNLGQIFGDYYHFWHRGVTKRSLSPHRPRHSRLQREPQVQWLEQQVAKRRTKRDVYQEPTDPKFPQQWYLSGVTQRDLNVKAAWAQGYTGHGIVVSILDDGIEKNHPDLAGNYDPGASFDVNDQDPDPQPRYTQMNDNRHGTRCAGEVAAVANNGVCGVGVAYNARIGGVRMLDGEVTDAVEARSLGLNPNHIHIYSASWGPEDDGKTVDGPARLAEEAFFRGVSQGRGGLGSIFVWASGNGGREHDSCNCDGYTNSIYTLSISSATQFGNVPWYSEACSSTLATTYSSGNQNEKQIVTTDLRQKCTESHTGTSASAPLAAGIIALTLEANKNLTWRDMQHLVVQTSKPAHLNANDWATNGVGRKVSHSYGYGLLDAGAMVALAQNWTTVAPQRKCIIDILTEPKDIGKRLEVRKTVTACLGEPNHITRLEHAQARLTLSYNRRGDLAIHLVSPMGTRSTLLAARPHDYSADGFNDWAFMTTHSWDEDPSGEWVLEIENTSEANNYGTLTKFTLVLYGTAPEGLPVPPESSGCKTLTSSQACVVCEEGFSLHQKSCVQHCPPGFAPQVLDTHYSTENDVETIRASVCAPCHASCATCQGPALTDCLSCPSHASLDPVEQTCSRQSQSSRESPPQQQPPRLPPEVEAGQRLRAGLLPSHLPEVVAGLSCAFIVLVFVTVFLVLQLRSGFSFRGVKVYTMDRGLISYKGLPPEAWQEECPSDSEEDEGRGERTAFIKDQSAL
Test: furin cleavage Z-score vs untreated control; higher = more cleavage, active = 3.5 or more, inactive = 1 or less, 8 variable residues between constant flanks
Conditions: 15 min
The other results are listed elsewhere or left out. No count for the full screen is at hand.
Quick list: furin cleavage Z-score per entry.
Give the figure only, with no unit attached.

Examples with their reported furin cleavage Z-score follow.
CARAKREEKKAGNASASA [FS-2634] ... 2.96
CARRHRTYRWAGNASASA [FS-864] ... 9.85
CARQGRIARVAGNASASA [FS-1608] ... 2.36
CAEVFCHRPSAGNASASA [HC2347] ... -1
CARAKRPLMVAGNASASA [FS-2884] ... 1.97

Look up furin cleavage Z-score: CARVARERRWAGNASASA [FS-292]
11.7

Param item: CASTHCSAHLAGNASASA [HC2515]
1.32

Param item: CAEYPVGSQLAGNASASA [HC1237]
-1.49

Param item: CARIERVIGAAGNASASA [FS-2212]
-1.07

Param item: CAKTPCSAHLAGNASASA [HC2474]
-0.529

Param item: CARQGRVISVAGNASASA [FS-2168]
-0.187

Param item: CARSLRSWLIAGNASASA [FS-1974]
0.463

Param item: CARPARYRRGAGNASASA [FS-861]
11.1

Param item: CAEPPVVHGCAGNASASA [HC1314]
1.71

Param item: CARIERVARVAGNASASA [FS-187]
1.28

Param item: CAAEVRSKRRAGNASASA [FS-3]
4.38

Param item: CAIRSRVLREAGNASASA [FS-804]
10.5
